- Tested on: SW48 human colorectal cancer cells
- assay_info: Calculated free drug potency in SW48 cell assay, corrected with media free fraction (Example C)
- Assay type: cell-based
- assay_setup: Homo sapiens, SW48, SW48 pCC50 corrected with measured free fraction in cell assay media
Counter-ions that a name gives are not always drawn.
Param label: returns MET when CC50 < 70 nM, returns NOT MET otherwise, including exact equality.

INSERT INTO assay_data (compound, label_class) VALUES
  ('CC(=O)N[C@@H]1C[C@@H](COc2ccc(C(F)(F)F)cc2)[C@H](C(=O)O)[C@@H](c2ccc(N(C)S(=O)(=O)c3ccc4c(c3)nc(C)n4C)cc2)C1 (single isomer, unassigned) [Example 298]', 'NOT MET'),
  ('Cc1nc2cc(S(=O)(=O)N(C)c3ccc([C@@H]4C[C@H](N5CC6(F)CC5C6)C[C@H](C(=O)Nc5ccc(C(F)(F)F)cc5F)[C@H]4C(=O)O)cc3)ccc2n1C (relative stereo) [Example 397]', 'MET'),
  ('Cc1nc2cc(S(=O)(=O)N(C)c3ccc([C@H]4CCC[C@@H](C(=O)Nc5ccc(C(F)(F)F)cc5F)[C@@H]4C(=O)O)cc3)cc(F)c2n1C [Example 126]', 'MET'),
  ('Cc1nc2cc(S(=O)(=O)N(C)c3ccc([C@H]4CCC[C@@H](C(=O)Nc5ccc(C(F)(F)F)cc5F)[C@@H]4C(=O)O)cc3Cl)ccc2n1C [Example 296]', 'NOT MET'),
  ('Cc1nc2cc(S(=O)(=O)N(C)c3ccc([C@H]4CCC[C@@H](C(=O)Nc5ccc(C(F)(F)F)cc5F)[C@@H]4C(=O)O)cc3)cc(CCN)c2n1C [Example 289, hydrochloride]', 'NOT MET'),
  ('Cc1nc2cc(S(=O)(=O)N(C)c3ccc([C@H]4CCC[C@@H](C(=O)Nc5ccc(C(F)(F)F)cc5F)[C@@H]4C(=O)O)nc3)ccc2n1C (relative stereo) [Example 161]', 'MET'),
  ('CCO[C@@H]1C[C@H](c2ccc(N(C)S(=O)(=O)c3ccc4c(c3)nc(C)n4C)cc2)[C@@H](C(=O)O)[C@H](C(=O)Nc2ccc(C(F)(F)F)cn2)C1 (single isomer, unassigned) [Example 199]', 'NOT MET'),
  ('CC(C)c1nc2cc(S(=O)(=O)N(C)c3ccc([C@H]4CCC[C@@H](C(=O)Nc5ccc(C(F)(F)F)cc5F)[C@@H]4C(=O)O)cc3)ccc2n1C [Example 132]', 'MET'),
  ('Cc1nc2cc(S(=O)(=O)N(C)c3ccc([C@H]4C[C@@H](N(C)C)C[C@@H](C(=O)Nc5ccc(C(F)(F)F)cc5F)[C@@H]4C(=O)O)cc3)ccc2n1C (stereo in doubt) [Example 251]', 'NOT MET');
